The reported measurements were obtained from patent US4628115A.

System: SRS-A induced constriction of the guinea pig ileum
Assay Comment: Guinea Pig Ileum, In Vitro (SRS-A antagonism)
Format: cell-based
Assay Context: Cavia porcellus, read-out: IC50 (standard SRS-A antagonist)
Measure Name: IC50 (µM)
Use µM as the unit, but write only the number.

// CCCc1c(OCC(O)COc2ccc3c(=O)cc(C(=O)O)oc3c2CCC)ccc(C(C)=O)c1O (stereo not shown) [reference compound] : IC50 value = 0.035
